Method Notes: PK parameters in rat (IV and PO)
Type: in vivo
Measurement Conditions: Sprague Dawley, plasma, IV arm, 1 mg/kg, read-out: PK parameters (rat): t1/2
Measurement Label: half-life (h)

> print(dat)
                                   compound  display.unit  numeric.readout
1  N#Cc1cc(NC(=O)[C@H]2c3ccccc3C(=O)N(CC(F)(F)F)[C@@H]2c2cnc(C(F)(F)F)nc2)ccc1F             h               22
2  N#Cc1cc(NC(=O)[C@H]2c3ccccc3C(=O)N(CC(F)(F)F)[C@@H]2c2cccnc2)ccc1F [(+) SJ-733, reference compound]             h              7.7
3  N#Cc1cc(NC(=O)[C@H]2c3ccccc3C(=O)N(CC(F)(F)F)[C@@H]2c2ccc(OCC(F)(F)F)nc2)ccc1F             h               85
4  N#Cc1cc(NC(=O)[C@H]2c3ccccc3C(=O)N(CC(F)(F)F)[C@@H]2c2ccc(OC(F)F)nc2)ccc1F             h               38
5  N#Cc1cc(NC(=O)[C@H]2c3ccccc3C(=O)N(CC(F)(F)F)[C@@H]2c2ccc(OC3CC3)nc2)ccc1F (single isomer, unassigned)             h               26
6  N#Cc1cc(NC(=O)[C@H]2c3ccccc3C(=O)N(CC(F)(F)F)[C@@H]2c2ccc(C(F)(F)F)nc2)ccc1F             h               11
